measured.attribute: melting point

Prompt: Field request: melting point | item: `C#Cc1ccc(-c2nc(-c3ccccc3)nc(-c3ccc(C#C)cc3)n2)cc1`
Completion: 215 °C

Prompt: Same question for COC(=O)C(C)N(C(=O)CF)c1c(C)cccc1Cl (configuration not stated) please.
Completion: 101 to 103 °C

Prompt: Same question for NC(=O)OCC(O)Cn1oc2ccc(Cl)cc2c1=O (configuration not stated) please.
Completion: 161 to 162 °C

----------
# melting point values compiled below

Prompt: Field request: melting point | item: `CN1Cc2c(Br)ncn2-c2cccc(Cl)c2C1=O`
Completion: 178 to 179 °C

Prompt: Same question for `Oc1nnc(-c2ccc(CN3CCCCCC3)s2)o1` please.
Completion: 117 to 119 °C

Prompt: Same question for `Cc1noc(NC(=O)N2CCC(c3nc(-c4ccccc4)cs3)CC2)c1C` please.
Completion: 156 to 157 °C

Prompt: Same question for `COc1cc(C)c(NCCO)cc1[N+](=O)[O-]` please.
Completion: 94 °C

Prompt: Same question for `O=C1c2cccc3cccc(c23)C(=O)N1CCN1CCN(CCO)CC1` please.
Completion: 165 to 166 °C

----------
# melting point values compiled below

compound: Cc1cc(O)c(SC(C)(C)C)c(=O)o1
measured.attribute: melting point
result: 108 to 112 °C

compound: OCCc1c(-c2ccccc2)n2nnnc2n2ncnc12
measured.attribute: melting point
result: 110 °C

From here, focus on the item given below.
Prompt: Field request: melting point | item: `Cc1ccc(C2CCN(C(=O)CCC(=O)c3ccc4c(c3)CCNCC4)CC2)cc1`
Completion: 115 to 116 °C

----------
measured.attribute: melting point

compound: CC(=O)c1cc2c(cc1OCCCCCBr)OC(C(=O)OC(C)C(C)O)CC2 (configuration not stated)
melting point: 80 to 83 °C

Prompt: Field request: melting point | item: `CC(C)(C)NC(=O)N(C=O)Oc1cc(Cl)ccc1Cl`
Completion: 101 to 102 °C

Prompt: Same question for CC(C)(O)CC(N)C1(c2ccc(Cl)cc2)CCC1 (configuration not stated) please.
Completion: 60 to 62 °C

Prompt: Same question for `COc1ccc2[nH]c(SCc3ncc(C)c(N4CCOCC4)c3Cl)nc2c1` please.
Completion: 162 to 164 °C

Prompt: Same question for CCOC(=O)C1=Cc2cc(C(C)=O)ccc2OC1C(F)(F)F (configuration not stated) please.
Completion: 101 to 103 °C

Prompt: Same question for `CCCCCCCCCCCCn1nnnc1Cc1ccccc1` please.
Completion: 50 to 51 °C

Prompt: Same question for `O=C(NCc1cc[nH]c(=O)c1)c1nc2ccc(F)c(OCc3ccc(F)cc3)c2c(=O)[nH]1` please.
Completion: 248 to 250 °C

Prompt: Same question for `CON(C)C(=O)c1cc(-n2c(=O)cc(C(F)(F)F)n(C)c2=O)c(F)cc1Cl` please.
Completion: 158 °C

----------
# melting point values compiled below

Prompt: Field request: melting point | item: COC(=O)C(CNC(=O)c1ccccc1)NC(=O)C(C)(C)NC(=O)C(SC(C)=O)C(C)C (stereo unspecified)
Completion: 48 to 54 °C

Prompt: Same question for `COc1cc(Nc2c(C#N)cnc3cc(I)ccc23)c(Cl)cc1Cl` please.
Completion: 243 to 245 °C

Prompt: Same question for `COCCCOc1cc(C[C@@H](CBr)C(C)C)ccc1OC` please.
Completion: 52 to 53 °C

Prompt: Same question for NS(=O)(=O)c1ccc(F)c(C(O)CCl)c1 (stereo unspecified) please.
Completion: 112 °C

Prompt: Same question for `COc1ccc(C(=C/C=C/C(=O)NCCCCc2cccnc2)c2ccc(OC)cc2)cc1` please.
Completion: 76 to 77 °C

Prompt: Same question for Brc1cccc(Nc2ncnc3cc4c(cc23)OC(CN2CCOCC2)CO4)c1 (stereo unspecified) please.
Completion: 229 to 230 °C
